Each record here notes measured EC50.
Target: human PPARα (Homo sapiens, UniProt Q07869)
Construct: expressed in transfected cells; host or cells: Cos-7 cells (ATCC, CRL-1651)
Assay: Reporter gene transactivation, hPPAR-GAL4 alpha
Type: cell-based
Settings: transfected Cos-7 cells, Gal-4 luciferase reporter, 24 hours treatment

Below: 6 compounds and their reported EC50.
SAMPLE_SMILES	EC50
CCCCCCCn1c(=O)c(NCCc2ccc(OC(C)(C)C(=O)OCC)cc2)nn(C)c1=O	~1 µM
CCOC(=O)C(C)(C)Oc1ccc(CCNc2nn(CCCC3CCCCC3)c(=O)n(CCCC(F)(F)F)c2=O)cc1	1 to 3 µM
CCCCCCCn1nc(OCCOc2ccc(SC(C)(C)C(=O)OCC)cc2)c(=O)n(C)c1=O	> 10 µM
CCCCCCCn1c(=O)c(OCCCc2cccc(OC(C)(C)C(=O)OCC)c2)nn(CCCC(F)(F)F)c1=O	~0.3 µM
CCOC(=O)C(C)(C)Oc1cccc(CCCOc2nn(CCCC(F)(F)F)c(=O)n(C)c2=O)c1	> 10 µM
Cn1nc(NCCCCc2cccc(SC(C)(C)C(=O)O)c2)c(=O)n(CCCC(F)(F)F)c1=O	0.03 to 0.1 µM

Query: Requested read-out EC50, target or system human PPARα (Homo sapiens, UniProt Q07869), entry CCCCCCCn1c(=O)c(NCCCOc2ccc(OC(C)(C)C(=O)OCC)cc2)nn(CCCC(F)(F)F)c1=O
Result: 0.3 to 1 µM

Query: Can you check CCCCCCCn1nc(OCCCc2cccc(SC(C)(C)C(=O)OCC)c2)c(=O)n(C)c1=O next?
Result: 1 to 3 µM

* * *

Target: UniProt Q07869
Sequence (Q07869 239-466 limits assumed): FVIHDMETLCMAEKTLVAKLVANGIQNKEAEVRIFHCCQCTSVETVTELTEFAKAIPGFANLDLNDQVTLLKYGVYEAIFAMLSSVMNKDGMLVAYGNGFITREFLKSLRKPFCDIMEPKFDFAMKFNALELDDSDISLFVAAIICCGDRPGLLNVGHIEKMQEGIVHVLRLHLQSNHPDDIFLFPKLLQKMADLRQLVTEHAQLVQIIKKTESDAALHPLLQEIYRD
Assay: Reporter gene transactivation, hPPAR-GAL4 alpha
Details: transfected Cos-7 cells, Gal-4 luciferase reporter, 24 hours treatment
pEC50: −log10 of the molar value.
Each record here notes measured pEC50.

Below: 3 compounds and their reported pEC50.
COMPOUND	pEC50
CCCCCCCn1c(=O)c(NCCCCOc2ccc(OC(C)(C)C(=O)OCC)cc2)nn(C)c1=O [Example 50]	< 5.00
CCCCCCCn1nc(NCCOc2ccc(OC(C)(C)C(=O)OCC)cc2)c(=O)n(CCCCCCC)c1=O [Example 42]	~6.00
CCOC(=O)C(C)(C)Oc1ccc(CCOc2nn(CCCC(F)(F)F)c(=O)n(C)c2=O)cc1 [Example 24]	< 5.00

Query: Can you look up the measured pEC50 of CCCCCCCn1c(=O)c(NCCc2ccc(SC(C)(C)C(=O)OCC)cc2)nn(C)c1=O [Example 122] for me?
Result: ~6.52

Query: Can you check Cn1nc(NCCCCc2cccc(OC(C)(C)C(=O)O)c2)c(=O)n(CCCC(F)(F)F)c1=O [Example 79] next?
Result: ~7.52

Query: Can you check CCOC(=O)C(C)(C)Oc1ccc(OCCNc2nn(CCCC(F)(F)F)c(=O)n(CCCC(F)(F)F)c2=O)cc1 [Example 41] next?
Result: ~7.00

* * *

Biological target: human PPARα (Homo sapiens, UniProt Q07869)
Assay: Reporter gene transactivation, hPPAR-GAL4 alpha
Conditions: transfected Cos-7 cells, Gal-4 luciferase reporter, 24 hours treatment
Each record here notes measured EC50.

COMPOUND	EC50
CCOC(=O)C(C)(C)Oc1cccc(CCNc2nn(C)c(=O)n(CCCC(F)(F)F)c2=O)c1 [Example 58]	> 10000 nM
CCCCCCCn1c(=O)c(NCCc2cccc(OC(C)(C)C(=O)OCC)c2)nn(C)c1=O [Example 59]	1000 to 3000 nM
CCOC(=O)C(C)(C)Oc1ccc(OCCCNc2nn(CCCC(F)(F)F)c(=O)n(C)c2=O)cc1 [Example 44]	> 10000 nM
CCCCCCCN(CCc1ccc(OC(C)(C)C(=O)OCC)cc1)c1nn(C)c(=O)n(C)c1=O [Example 112]	1000 to 3000 nM
CCCCCCCn1nc(NCCCCc2cccc(OC(C)(C)C(=O)OCC)c2)c(=O)n(CCCC(F)(F)F)c1=O [Example 82]	~10 nM

Query: Requested read-out EC50, target or system human PPARα (Homo sapiens, UniProt Q07869), entry CCCCCCCn1nc(N(CCCOc2cccc(OC(C)(C)C(=O)OCC)c2)CCCC(F)(F)F)c(=O)n(C)c1=O [Example 51]
Result: 3000 to 10000 nM

Query: Can you check CCOC(=O)C(C)(C)Oc1cccc(CCCCCNc2nn(CCCC(F)(F)F)c(=O)n(CCCC(F)(F)F)c2=O)c1 [Example 92] next?
Result: 3 to 10 nM

Query: Can you check CCCCCCCn1c(=O)c(NCCCc2cccc(OC(C)(C)C(=O)OCC)c2)nn(C)c1=O [Example 67] next?
Result: ~1000 nM

Query: Can you check CCCCCCCN(CCCOc1ccc(SC(C)(C)C(=O)OCC)cc1)c1nn(C)c(=O)n(C)c1=O [Example 53] next?
Result: 1000 to 3000 nM

Query: Can you check CCOC(=O)C(C)(C)Sc1cccc(CCCCNc2nn(C)c(=O)n(CCCC(F)(F)F)c2=O)c1 [Example 95] next?
Result: 1000 to 3000 nM

Query: Can you check CCOC(=O)C(C)(C)Oc1ccc(CCNc2nn(CCCC(F)(F)F)c(=O)n(C)c2=O)cc1 [Example 102] next?
Result: > 10000 nM

Query: Can you check CCOC(=O)C(C)(C)Oc1ccccc1CCNc1nn(CCCC(F)(F)F)c(=O)n(CCCC(F)(F)F)c1=O [Example 55] next?
Result: > 10000 nM

Query: Can you check CCCCCCCn1nc(NCCOc2ccc(OC(C)(C)C(=O)OCC)cc2)c(=O)n(C)c1=O [Example 40] next?
Result: 3000 to 10000 nM

Query: Can you check CCOC(=O)C(C)(C)Sc1cccc(CCCCNc2nn(CCCC(F)(F)F)c(=O)n(Cc3ccccc3)c2=O)c1 [Example 100] next?
Result: 1000 to 3000 nM

Query: Can you check CCCCCCCn1c(=O)c(OCCCCCc2cccc(OC(C)(C)C(=O)OCC)c2)nn(CCCC(F)(F)F)c1=O [Example 18] next?
Result: 30 to 100 nM

* * *

Each record here notes measured pEC50.
Molecular target: human PPARα (Homo sapiens)
Sequence (Q07869 239-466 limits assumed): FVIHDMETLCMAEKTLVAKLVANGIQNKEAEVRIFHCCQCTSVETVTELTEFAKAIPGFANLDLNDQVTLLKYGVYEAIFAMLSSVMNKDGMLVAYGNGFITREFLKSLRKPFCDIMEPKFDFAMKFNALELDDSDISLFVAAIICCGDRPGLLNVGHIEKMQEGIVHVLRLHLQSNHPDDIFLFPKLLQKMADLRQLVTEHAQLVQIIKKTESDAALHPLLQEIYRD
Assay: Reporter gene transactivation, hPPAR-GAL4 alpha
Details: transfected Cos-7 cells, Gal-4 luciferase reporter, 24 hours treatment
pEC50: −log10 of the molar value.

COMPOUND	pEC50
CCCCCCCn1c(=O)c(NCCc2ccc(OC(C)(C)C(=O)OCC)cc2)nn(CCCC(F)(F)F)c1=O [Example 107]	~6.00
CCCCCCCn1nc(NCCCCc2cccc(OC(C)(C)C(=O)OCC)c2)c(=O)n(CCCCCCC)c1=O [Example 88]	~6.52
CCCCn1c(=O)c(OCCc2ccccc2OC(C)(C)C(=O)OCC)nn(C)c1=O [Example 1]	5.00 to 5.52

Query: Can you look up the measured pEC50 of CCOC(=O)C(C)(C)Oc1cccc(CCCNc2nn(CCCC(F)(F)F)c(=O)n(C)c2=O)c1 [Example 62] for me?
Result: < 5.00

Query: Can you check CCCCCCCn1nc(NCCCc2ccc(SC(C)(C)C(=O)OCC)cc2)c(=O)n(C)c1=O [Example 124] next?
Result: 6.00 to 6.52

Query: Can you check CCCCCCCn1c(=O)c(NCCc2ccc(SC(C)(C)C(=O)O)cc2)nn(CCCC(F)(F)F)c1=O [Example 123] next?
Result: 6.52 to 7.00

* * *

Molecular target: human PPARα (Homo sapiens, UniProt Q07869)
Experiment: Reporter gene transactivation, hPPAR-GAL4 alpha
Conditions: transfected Cos-7 cells, Gal-4 luciferase reporter, 24 hours treatment
pEC50: −log10 of the molar value.
MEASURE_NAME: pEC50

COMPOUND	READING
CCCCCCCn1nc(OCCc2cccc(OC(C)(C)C(=O)OCC)c2)c(=O)n(C)c1=O	< 5.00
CCOC(=O)/C=C/Cn1nc(NCCc2ccc(OC(C)(C)C(=O)OCC)cc2)c(=O)n(CCCC(F)(F)F)c1=O	5.52 to 6.00

Query: Can you look up the measured pEC50 of CCOC(=O)C(C)(C)Oc1cccc(CCCCNc2nn(C)c(=O)n(CCCC(F)(F)F)c2=O)c1 for me?
Result: ~6.52

Query: Can you check CCOC(=O)C(C)(C)Oc1ccc(OCCCOc2nn(CCCC(F)(F)F)c(=O)n(CCCC(F)(F)F)c2=O)cc1 next?
Result: 6.52 to 7.00

Query: Can you check CCCCCCCn1nc(OCCCc2ccc(OC(C)(C)C(=O)OCC)cc2)c(=O)n(C)c1=O next?
Result: ~5.52

Query: Can you check CCCCn1c(=O)c(OCCCCCc2cccc(OC(C)(C)C(=O)OCC)c2)nn(C)c1=O next?
Result: 6.00 to 6.52

Query: Can you check CCCCCCCn1c(=O)c(NCCCOc2ccc(OC(C)(C)C(=O)OCC)cc2)nn(C)c1=O next?
Result: ~6.52

Query: Can you check CCOC(=O)C(C)(C)Oc1cccc(CCCNc2nn(CCCC(F)(F)F)c(=O)n(Cc3ccccc3)c2=O)c1 next?
Result: ~6.00

Query: Can you check CCCCCCCn1nc(OCCCCOc2cccc(OC(C)(C)C(=O)OCC)c2)c(=O)n(C)c1=O next?
Result: 6.00 to 6.52

Provenance of the data: patent US7713971B2
